// reported growth for each item listed
System: MDA-MB-468 breast
Assay: NCI-60 one-dose screen, 48 h (100 = growth as untreated, 0 = no growth, -100 = all killed)
Conditions: 10 µM unless noted
About 83,000 compounds went through this panel and 20% of them were active in at least one assay; those are over-represented in the sample as a whole. Activity calls are given as the source filed them. How the source made its calls: active means growth percent below 10; inactive means the rest.
measurement-label: growth

compound: Oc1ccccc1/C=N/N=C/c1c(O)ccc2ccccc12
result: 83.4% (inactive)
//
compound: Cc1cc2c(C(C)C)c(O)c(O)c(C=NCCCCC(=O)O)c2c(O)c1-c1c(C)cc2c(C(C)C)c(O)c(O)c(C=NCCCCC(=O)O)c2c1O
result: 35.4% (inactive)
//
compound: CC(C)CCNCC(O)Cn1c2ccccc2c2ccccc21 (centres undefined)
result: 2.41% (active)
//
compound: O=C1/C(=C/c2ccc(F)cc2)C=C(c2ccccc2)N1CCc1ccccc1
result: 72.9% (inactive)
//
compound: O=C1CC(N2C(=O)/C(=C/C(Cl)=C\c3ccc([N+](=O)[O-])cc3)SC2=S)C(=O)N1c1ccc(Cl)cc1 (centres undefined)
result: -6.24% (active)
//
compound: CN1C(=O)N(C)C2Nn3c(s/c(=C\c4ccc(Cl)cc4Cl)c3=O)=NC21 (centres undefined)
result: 59% (inactive)
//
compound: COc1ccc2oc(=O)cc(C(c3ccc[nH]3)c3ccc[nH]3)c2c1
result: 5.5% (active)
//
compound: Clc1ccc(-c2nc(-c3cccs3)cn3ccnc23)cc1
result: -11.1% (active)
//
compound: O=C(Nc1cccc(Cl)c1)Nc1nc2ccc([N+](=O)[O-])cc2o1
result: -4.51% (active)
//
compound: Cc1cc(Cl)ccc1NC(=O)/C(Cl)=C1/Sc2ccccc2NC1=O
result: 95.1% (inactive)
//
compound: COc1ccc2cc(-c3ccc(NC(C)=O)c(=O)o3)ccc2c1
result: 106% (inactive)
//
compound: CC1(C)C2CCC(O)(C(=O)O)C1C2 (centres undefined)
result: 106% (inactive)
//
compound: O=C(Nc1ccc(N2CCNCC2)cn1)c1[nH]ncc1Nc1ncnc2sc3c(c12)CCC3
result: -37.9% (active)
//
compound: COc1cccc2c1C(=O)c1c(O)c3c(c(O)c1C2=O)C[C@](O)(C(=O)CO)C[C@H]3O[C@@H]1C[C@@H](NC(=O)CCCCCN(C)C2(c3ccc(F)cc3)CC3CCC2C3)[C@H](O)[C@@H](C)O1 (some centres undefined)
result: 4.63% (active)
//
compound: O=C1[C@@H]2Cc3c([nH]c4ccccc34)[C@@H](c3ccc(Cl)cc3)N2C(=O)CN1C1CCN(Cc2ccccc2)CC1
result: 49.5% (inactive)
//
compound: C=C(C)[C@@H]1CC[C@]2(C(N)=O)CC[C@]3(C)[C@H](CC[C@@H]4[C@@]5(C)C/C(=C/c6cccnc6)[C@H](O)C(C)(C)[C@@H]5CC[C@]43C)[C@@H]12
result: 23.6% [100 µM] (inactive)
//
compound: O=C1c2c(O)ccc(O)c2C(=O)c2c(NCCNCCO)ccc(NCCNCCO)c21
result: -77.2% (active)
//
compound: OCCn1cc(-c2nc(-c3c[nH]c4ncccc34)cs2)c2ccccc21
result: 4.37% (active)
//
compound: NC(=O)OCCO
result: 113% (inactive)
//
compound: Clc1ccc2c(NCCNc3nc(N4CCCC4)nc4ccccc34)ccnc2c1
result: -49.2% (active)
//
compound: O=C(/C=C/c1ccccc1)c1ccc(-n2cc(CN3CCN(c4cc5c(cc4F)c(=O)c(C(=O)O)cn5C4CC4)CC3)nn2)cc1
result: 66% (inactive)
//
compound: COc1ccc(/C=C(\C#N)n2nnc3ccc(Cl)cc32)cc1
result: 28.9% (inactive)
//
compound: NCc1cn2cc(Cl)sc2n1
result: 101% (inactive)
//
compound: COc1cc(-c2ccc[nH]2)[nH]c1/C=C1\N=C(C)C(C(=O)NC(C)C)=C1C
result: 44% (inactive)
//
compound: O=C(/C=C/C12c3ccccc3C(c3ccccc31)C1C(=O)N(c3ccccc3)C(=O)C12)c1ccc(Cl)cc1 (centres undefined)
result: 3.08% (active)
//
compound: C=C1C(=O)O[C@H]2[C@H]1CC/C(COC(=O)c1cc3cc(OC)ccc3[nH]1)=C\CC[C@@]1(C)O[C@@H]21
result: -76.3% (active)
//
compound: CCOC(=O)/C(=C/c1ccc([N+](=O)[O-])cc1)C(=O)c1ccccc1
result: 21.3% (inactive)
//
compound: CCN(C(=O)Nc1cccc2ccccc12)c1ccccc1
result: 99.7% (inactive)
//
compound: CCn1c(Sc2nnc(NC(=O)CCN3CCCC3)s2)nc2c1c(=O)n(C)c(=O)n2C
result: 101% (inactive)
//
compound: CN=C1C=C/C(=N/N=c2/ccn(O)cc2C)C=C1C
result: 83.1% (inactive)
//
compound: CN(C)CCN(Cc1ccccc1)c1ccccc1
result: 103% (inactive)
//
compound: O=C1CCN2C(=O)Nc3ccccc3C2C1 (centres undefined)
result: 109% (inactive)
//
compound: CN1CCC(=C(c2ccccc2)c2ccccc2)C(c2ccccc2)C1 (centres undefined)
result: 87.6% (inactive)
//
compound: C=C(C)[C@@H]1CC[C@]2(C(=O)N3CCNCC3)CC[C@]3(C)[C@H](CC[C@@H]4[C@@]5(C)C/C(=C/c6ccncc6)C(=O)C(C)(C)[C@@H]5CC[C@]43C)[C@@H]12
result: 95% (inactive)
//
compound: c1ccc2c(c1)oc1cc3sccc3nc12
result: 102% (inactive)
//
compound: C=C1C(=O)O[C@H]2[C@H]1CC/C(COC(=O)NCc1cc(OC)cc(OC)c1)=C\CC[C@@]1(C)O[C@@H]21
result: 10.2% (inactive)
//
compound: Cc1ccc(C)c(NC2=C(Cl)C(=O)c3nc(C)ccc3C2=O)c1
result: -73.5% (active)
//
compound: COc1ccc(-c2nc(N/N=C/c3ccco3)nc(N3CCOCC3)c2C#N)cc1
result: 36% (inactive)
//
compound: O=C(CCCCCCN1CC(=O)N2[C@@H](C3CC3)c3[nH]c4ccccc4c3C[C@H]2C1=O)NO
result: 64.6% (inactive)

====

System: SK-MEL-5 melanoma
Experiment: NCI-60 one-dose screen, 48 h
Conditions: 10 µM
Compounds without any hit were thinned out: in the full panel of roughly 83,000, 20% have a hit. The source made the active and inactive calls. How the source made its calls: active means growth percent below 10; inactive means the rest.
Possible outcomes: yes (1) = active, no (0) = inactive

compound: O=C(Nc1ccc(OCc2ccc(F)cc2)cc1)Nc1ccc(Cl)c(C(F)(F)F)c1
class-assignment: yes (1)
--
compound: COC(=O)CNC(=O)COc1c(OC)c(OC)cc2oc(-c3cccc(C(=O)Nc4ccc(Cl)cc4)c3)cc(=O)c12
class-assignment: yes (1)
--
compound: CC1(C)CC[C@]2(C(=O)O)CC[C@]3(C)C(=CCC4[C@@]5(C)C[C@@H](O)[C@@H]6OC(c7cccc(F)c7)OC[C@@]6(C)C5CC[C@]43C)C2C1 (some centres not stated)
class-assignment: no (0)
--
compound: CCOc1ccc(/C=N/NC(=O)Cn2nc(Cc3ccc(OC)cc3)c3onc(C)c3c2=O)cc1
class-assignment: no (0)
--
compound: Cn1cc(-c2nnc(N)nc2-c2c[nH]c3ccccc23)c2cc(Br)cnc21
class-assignment: yes (1)
--
compound: Nc1nnc(-c2c[nH]c3ncc(Br)cc23)c(-c2c[nH]c3ccc(Br)cc23)n1
class-assignment: yes (1)
--
compound: COc1ccc(-n2c(SCC(=O)NNS(=O)(=O)c3ccccc3)nc3ccc(Cl)cc3c2=O)cc1
class-assignment: no (0)
--
compound: Cc1ccc(-c2nc(C#N)c(S(=O)(=O)N3CCN(S(C)(=O)=O)CC3)o2)cc1
class-assignment: no (0)
--
compound: C#C[C@]1(O)CC[C@H]2[C@@H]3CC=C4c5sc(Nc6ccc(N(C)C)cc6)nc5CC[C@]4(C)[C@H]3CC[C@@]21C
class-assignment: yes (1)
--
compound: Cc1cc(N=C2NC(=O)/C(=C/c3cc(C(C)(C)C)c(O)c(C(C)(C)C)c3)S2)n[nH]1
class-assignment: yes (1)
--
compound: Cn1cc(-c2cc(N)n3nc(-c4cn(C)c5ccccc45)cc3n2)c2cc(F)ccc21
class-assignment: yes (1)
--
compound: O=C(c1ccc(Cl)cc1)C(c1c[nH]c2ccccc12)c1c[nH]c2ccccc12
class-assignment: yes (1)
--
compound: O=C(CSc1nc2ccccc2c(=O)n1-c1ccc(Cl)cc1)Nc1ccc(-c2nc3ccc([N+](=O)[O-])cc3[nH]2)cc1
class-assignment: no (0)
--
compound: COc1ccccc1-n1cc(C#N)c(N)c1C(=O)c1ccc(Cl)cc1Cl
class-assignment: no (0)
--
compound: C#C[C@]1(O)CC[C@H]2[C@@H]3CC=C4c5sc(Nc6ccc(C(F)(F)F)cn6)nc5CC[C@]4(C)[C@H]3CC[C@@]21C
class-assignment: yes (1)
--
compound: O=C(Nc1ccc(Oc2ncnc3scc(Nc4n[nH]c(=S)s4)c23)cc1)C1(C(=O)Nc2cccc(C(F)(F)F)c2)CC1
class-assignment: no (0)
--
compound: O=C(c1ccccc1)c1ccc2nc(-c3ccccc3Br)[nH]c2c1
class-assignment: yes (1)
